// ITK (Homo sapiens, UniProt Q08881) Ki records
quantity name: Ki (nM)

INSERT INTO measurements (molecule, experimental_system, value_reported) VALUES
  ('CCC(c1cnn(CC)c1)n1cc(NC(=O)c2n[nH]c3c2CCC(C)(C)C3)cn1 (single isomer, unassigned) [Example 99b]', 'ITK (Homo sapiens, UniProt Q08881)', 4),
  ('CC(c1cncs1)n1cc(NC(=O)c2n[nH]c3c2CCC(C)(C)C3)cn1 (single isomer, unassigned) [Example 98b]', 'ITK (Homo sapiens, UniProt Q08881)', 2),
  ('CC1(C)CCc2c(C(=O)Nc3cnn(C(CN4CCCC4=O)c4ccccc4)c3)n[nH]c2C1 (racemic)', 'ITK (Homo sapiens, UniProt Q08881)', 4),
  ('CC(C1CCOCC1)n1cc(NC(=O)c2n[nH]c3c2CCC(C)(C)C3)cn1 (single isomer, unassigned) [Example 78a]', 'ITK (Homo sapiens, UniProt Q08881)', 26);

###

// ITK (Homo sapiens) Ki records
quantity name: Ki (nM)

INSERT INTO results (molecule, result_units, value_reported) VALUES
  ('CC(c1cccnc1)n1cc(NC(=O)c2n[nH]c3c2CCC(C)(C)C3)cn1 (single isomer, unassigned) [Example 106a]', 'nM', 3),
  ('CC(=O)N1CC(C(c2ccccc2)n2cc(NC(=O)c3n[nH]c4c3CCC(C)(C)C4)cn2)C1 (single isomer, unassigned) [Example 37a]', 'nM', 14),
  ('CN(C)CCC(c1ccccc1)n1cc(NC(=O)c2n[nH]c3c2CC2CC2(C)C3)cn1 (single isomer, unassigned) [Example 52b]', 'nM', 17),
  ('O=C(Nc1cnn(Cc2ccccc2)c1)c1n[nH]c2c1CCC1(CCCC1=O)C2 (single isomer, unassigned) [Example 105b]', 'nM', 240),
  ('CN(C)CCC(c1ccccc1)n1cc(NC(=O)c2n[nH]c3c2CCC2(CCCO2)C3)cn1 (centres unmarked) [Example 59]', 'nM', 40);

###

Protein target, amino acids: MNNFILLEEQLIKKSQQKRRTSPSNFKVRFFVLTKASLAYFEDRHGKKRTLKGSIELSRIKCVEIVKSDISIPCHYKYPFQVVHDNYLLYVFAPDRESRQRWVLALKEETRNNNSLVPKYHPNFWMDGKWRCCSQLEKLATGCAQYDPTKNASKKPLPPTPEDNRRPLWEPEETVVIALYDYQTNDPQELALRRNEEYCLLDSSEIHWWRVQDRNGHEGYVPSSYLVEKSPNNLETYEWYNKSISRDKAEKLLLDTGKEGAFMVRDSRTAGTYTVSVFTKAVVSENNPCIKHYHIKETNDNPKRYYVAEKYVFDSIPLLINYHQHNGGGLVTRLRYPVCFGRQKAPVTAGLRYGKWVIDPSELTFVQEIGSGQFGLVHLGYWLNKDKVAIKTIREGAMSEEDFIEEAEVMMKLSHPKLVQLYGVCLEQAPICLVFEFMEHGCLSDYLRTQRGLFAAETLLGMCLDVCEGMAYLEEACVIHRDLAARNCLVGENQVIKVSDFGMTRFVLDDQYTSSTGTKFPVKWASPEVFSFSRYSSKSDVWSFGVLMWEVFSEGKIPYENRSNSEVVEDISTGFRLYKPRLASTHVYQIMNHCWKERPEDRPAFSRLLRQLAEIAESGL
pKi: −log10 of the molar value.
# binarize pKi: threshold 8 inclusive, high side MET, low side NOT MET

INSERT INTO assay_data (compound, category) VALUES
  ('CC1(C)Cc2[nH]nc(C(=O)Nc3cnn(Cc4ccccc4)c3)c2CC1CO (single isomer, unassigned) [Example 95a]', 'MET'),
  ('CC(c1cccnc1)n1cc(NC(=O)c2n[nH]c3c2CCC(C)(C)C3)cn1 (single isomer, unassigned) [Example 106b]', 'MET'),
  ('CC12CCc3c(C(=O)Nc4cnn(Cc5ccccc5)c4)n[nH]c3C1C2 (single isomer, unassigned) [Example 153a]', 'NOT MET'),
  ('CN(C)CCC(c1ccccc1)n1cc(NC(=O)c2n[nH]c3c2CCC2(COC2)C3)cn1 (single isomer, unassigned) [Example 15b]', 'NOT MET'),
  ('CN(C)CCC(c1cccc(C(F)(F)F)c1)n1cc(NC(=O)c2n[nH]c3c2CCC(C)(C)C3)cn1 (single isomer, unassigned) [Example 30b]', 'MET');
